Kindly state growth for each of the entries shown.
- System: SK-MEL-28 melanoma
- PROTOCOL_NOTES: NCI-60 one-dose screen, 48 h (100 = growth as untreated, 0 = no growth, -100 = all killed)
- CONDITION: 10 µM unless noted
Compounds without any hit were thinned out: in the full panel of roughly 83,000, 20% have a hit. The source made the active and inactive calls. Rule for the calls: active = growth percent below 10; inactive = the rest.

smiles_string=Cc1cc(NC(=O)c2ccccc2)c(Cl)cc1N target_of_assay="SK-MEL-28 melanoma" experimental_result="124% (inactive)"
smiles_string=CCCCCCCCCc1ccc(OC(C)=O)cc1 target_of_assay="SK-MEL-28 melanoma" experimental_result="107% (inactive)"

Please look at the items below and tell me growth for each one, in order.
1. CCOC(=O)Nc1nccs1
2. COc1c(CNC(=O)CCl)cc2[nH]c(C)cc2c1CNC(=O)CCl

RESULT:
1: 111% (inactive); 2: 63.2% (inactive)

Please look at the items below and tell me growth for each one, in order.
1. O=C(O)c1ccc(OCc2ccccc2)cc1
2. OCCc1ccc(Cl)cc1
3. CC(=O)c1ccc(C)cc1

RESULT:
1. 101% (inactive)
2. 108% (inactive)
3. 104% (inactive)

###

- Test system: TK-10 renal
- PROTOCOL_NOTES: NCI-60 one-dose screen, 48 h
- CONDITION: 10 µM unless noted
This is part of a sample that, as a whole, favours compounds with a hit. Of some 83,000 tested, about 20% had one in any assay. The source made the active and inactive calls. How the source made its calls: active means growth percent below 10; inactive means the rest.
Tick one outcome: class 1 (active), class 0 (inactive)

compound=COc1ccc2c(ccc[n+]2C)c1 group_label="class 0"
compound=Nc1cc(N)ncn1 group_label="class 0"
compound=COc1nc(Nc2cccc(C(F)(F)F)c2)nc(OC)n1 group_label="class 0"

QUERY: Could you please tell me the result logged for CC(=O)NC(CCC(=O)c1ccccc1)C(=O)O (stereo unspecified) in this assay?
RESULT: class 0

QUERY: # iterate: C=C1C(=O)C2CCC1C2 (stereo unspecified)
RESULT: class 0

QUERY: # iterate: NCCCN1CCCC1=O
RESULT: class 0

###

Kindly state growth for each of the entries shown.
- System: HOP-62 NSCLC
- PROTOCOL_NOTES: NCI-60 one-dose screen, 48 h (100 = growth as untreated, 0 = no growth, -100 = all killed)
- CONDITION: 10 µM unless noted
The panel holds about 83,000 compounds, 20% with a hit somewhere; the sample as a whole holds those more often. Calls of active or inactive are those of the source. How the source made its calls: active means growth percent below 10; inactive means the rest.

smiles_string=CCC(=O)C1C(=O)c2ccccc2C1=O experimental_result="99% (inactive)"
smiles_string=ON1CCCC1 experimental_result="108% (inactive)"
smiles_string=O=C(NCc1ccco1)Nc1cccc2c(NC(=O)NCc3ccco3)cccc12 experimental_result="104% [100 µM] (inactive)"
smiles_string=NC(=S)N/N=C/c1ccc(OC(=O)COc2ccc(Cl)cc2)cn1 experimental_result="53% (inactive)"

# ---- query molecule ----
QUERY: Requested field: growth. Item: O=c1nc(Nc2cccc(Cl)c2)oc2cc(Cl)oc(=O)c12
RESULT: 81.5% (inactive)

###

- Test system: NCI-H322M lung
- PROTOCOL_NOTES: NCI-60 one-dose screen, 48 h
- CONDITION: 10 µM unless noted
Compounds without any hit were thinned out: in the full panel of roughly 83,000, 20% have a hit. Calls of active or inactive are those of the source. Rule for the calls: active = growth percent below 10; inactive = the rest.
Tick one outcome: active, inactive

A selection of reference data follows.
molecule="O=S(Cc1ccccc1)/C(=C/NC(=S)Nc1ccccc1)c1ccccc1 (centres undefined)" target_of_assay="NCI-H322M lung" group_label=inactive
molecule="COC(CCCl)c1ccc(Cl)cc1 (centres undefined)" target_of_assay="NCI-H322M lung" group_label=inactive
molecule=CC(=O)c1cccc(NS(=O)(=O)c2ccc(C)cc2)c1 target_of_assay="NCI-H322M lung" group_label=inactive

QUERY: Could you please tell me the result logged for COc1cc(-c2ccc(NC(=O)CC(C)=O)c(OC)c2)ccc1NC(=O)CC(C)=O in this assay?
RESULT: inactive

QUERY: # iterate: C=C1C(=O)C2CCN1CC2
RESULT: inactive

QUERY: # iterate: CCOC(=O)c1c[nH][nH]c1=O
RESULT: inactive

QUERY: # iterate: Nc1ncnc2c1ncn2C1OC(CO)C2OC21 (centres undefined)
RESULT: inactive
